TARGET: Hepatocyte Growth Factor (HGF), human (human, UniProt P14210 32-728)
Sequence (P14210 32-728): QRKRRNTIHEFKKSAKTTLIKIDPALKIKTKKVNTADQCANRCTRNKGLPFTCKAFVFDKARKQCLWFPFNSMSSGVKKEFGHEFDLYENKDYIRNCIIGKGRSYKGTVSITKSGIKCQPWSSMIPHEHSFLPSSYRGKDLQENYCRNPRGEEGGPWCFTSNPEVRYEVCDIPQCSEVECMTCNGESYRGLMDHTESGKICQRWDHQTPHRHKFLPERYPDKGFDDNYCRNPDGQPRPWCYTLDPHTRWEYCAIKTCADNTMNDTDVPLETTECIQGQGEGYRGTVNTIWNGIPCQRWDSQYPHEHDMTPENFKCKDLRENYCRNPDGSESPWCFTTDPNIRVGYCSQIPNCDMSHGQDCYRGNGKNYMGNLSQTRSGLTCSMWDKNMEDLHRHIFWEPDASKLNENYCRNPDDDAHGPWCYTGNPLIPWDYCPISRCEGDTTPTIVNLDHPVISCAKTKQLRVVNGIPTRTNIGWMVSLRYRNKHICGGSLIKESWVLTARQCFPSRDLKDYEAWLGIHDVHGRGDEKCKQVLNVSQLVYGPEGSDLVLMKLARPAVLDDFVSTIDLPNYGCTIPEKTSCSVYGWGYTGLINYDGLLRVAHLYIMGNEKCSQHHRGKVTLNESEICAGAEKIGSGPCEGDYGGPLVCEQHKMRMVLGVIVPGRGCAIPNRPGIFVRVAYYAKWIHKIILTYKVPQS
PROTOCOL_TEXT: ELISA
ENDPOINT_NAME: pEC50
Give bare numbers, as −log10 of the molar value.

HC 9/SLC 7 (antibody) chain 1: GQGTLVTVSSASTKGPSVFQPVLHQPPAMSSALGTTIRLTCTLRNDHDIGVYSVYWYQQRPGHPPRFLLRYFSQSDKSQGPQVPPRFSGSKDVARNRGYLSISELQPEDEAMYYCAMGARSRCWPRGFQSKHNSVTHVFGSGTQLTVLSQPKATPSVTLFPPSSEELQANKATLVCLMNDFYPGILTVTWKADGTPITQGVEMTTPSKQSNNKYAASSYLSLTPEQWRSRRSYSCQVMHEGSTVEKTVAPAECS chain 2: MSWAPVLLMLFVYCTGCGPQPVLHQPPAMSSALGTTIRLTCTLRNDHDIGVYSVYWYQQRPGHPPRFLLRYFSQSDKSQGPQVPPRFSGSKDVARNRGYLSISVTHVFGSGTQLTVLSQPKATPQVQLVQ
10.23

Consider the additional binder presented here.
### Prompt State the recorded pEC50 for this entry: HC 4/SLC 8 (antibody) chain 1: GQGTLVTVSSASTKQPVLHQPPAMSSALGTTIRLTCTLRNDHDIGVYSVYWYQQRPGHPPRFLLRYFSQSDKSQGPQVPPRFSGSKDVARNRGYLSISELQPEDEAMYYCAMGARSRCWPRGFQSKHNSVTHVFGSGTQLTVLSQPKATPSVTLFPPSSEELQANKATLVCLMNDFYPGILTVTWKADGTPITQGVEMTTPSKQSNNKYAASSYLSLTPEQWRSRRSYSCQVMHEGSTVEKTVAPAECS chain 2: MSWAPVLLMLFVYCTGCGPQPVLHQPPAMSSALGTTIRLTCTLRNDHDIGVYSVYWYQQRPGHPPRFLLRYFSQSDKSQGPQVPPRFSGSKDVARNRGYLSISVTHVFGSGTQLTVLSQPKATPSQVQLVQ
### Response 10.21
